tested system: human Y2 receptor (human) (UniProt P49146)
Sequence (P49146 whole entry): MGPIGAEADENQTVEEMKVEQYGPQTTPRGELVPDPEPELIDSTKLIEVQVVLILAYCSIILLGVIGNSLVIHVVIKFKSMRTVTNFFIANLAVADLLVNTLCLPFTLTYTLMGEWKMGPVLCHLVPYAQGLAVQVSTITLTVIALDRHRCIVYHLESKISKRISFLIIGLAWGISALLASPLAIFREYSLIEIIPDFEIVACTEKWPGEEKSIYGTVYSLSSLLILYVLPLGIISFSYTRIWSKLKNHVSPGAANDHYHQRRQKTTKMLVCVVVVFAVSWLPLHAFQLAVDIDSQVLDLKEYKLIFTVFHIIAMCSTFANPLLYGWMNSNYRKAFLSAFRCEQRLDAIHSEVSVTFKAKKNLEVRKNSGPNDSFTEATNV
assay protocol: RBA: displacement of [125I]-PYY from hY2R/CHO membranes
Non-standard residues stand in square brackets, D forms with d. *: point of attachment. Imidazole4carbonyl = O=C(c1cnc[nH]1)*; 4Pal = N[C@@H](Cc1ccncc1)C(=O)O; Cha = N[C@@H](CC1CCCCC1)C(=O)O; Isobutyryl = CC(C)C(=O)*; Iva = CC[C@](C)(N)C(=O)O; Aib = CC(C)(N)C(=O)O
observed property: IC50 Ratio (IC50 compound/IC50 PYY(3-36))
Please state the value as a number alone, without comment.

Prompt: Input Isobutyryl-E[dP]R[4Pal][Cha][Aib]NK[Aib]TRQR[Cha]-NH2 (SMILES CC(C)C(=O)N[C@@H](CCC(=O)O)C(=O)N1CCC[C@@H]1C(=O)N[C@@H](CCCNC(=N)N)C(=O)N[C@@H](Cc1ccncc1)C(=O)N[C@@H](CC1CCCCC1)C(=O)NC(C)(C)C(=O)N[C@@H](CC(N)=O)C(=O)N[C@@H](CCCCN)C(=O)NC(C)(C)C(=O)N[C@H](C(=O)N[C@@H](CCCNC(=N)N)C(=O)N[C@@H](CCC(N)=O)C(=O)N[C@@H](CCCNC(=N)N)C(=O)N[C@@H](CC1CCCCC1)C(N)=O)[C@@H](C)O) [Isobutanoyl-[Glu23, D-Pro24, Pya(4)26, Cha27,36, Aib28,31, Lys30]-PYY(23-36)] , output reported IC50 Ratio (IC50 compound/IC50 PYY(3-36)).
Completion: 1.9

Prompt: Input Imidazole4carbonyl-S[dP][Iva][4Pal][Cha][Aib]NK[Aib]TRQR[Cha]-NH2 (SMILES CC[C@](C)(NC(=O)[C@H]1CCCN1C(=O)[C@H](CO)NC(=O)c1cnc[nH]1)C(=O)N[C@@H](Cc1ccncc1)C(=O)N[C@@H](CC1CCCCC1)C(=O)NC(C)(C)C(=O)N[C@@H](CC(N)=O)C(=O)N[C@@H](CCCCN)C(=O)NC(C)(C)C(=O)N[C@H](C(=O)N[C@@H](CCCNC(=N)N)C(=O)N[C@@H](CCC(N)=O)C(=O)N[C@@H](CCCNC(=N)N)C(=O)N[C@@H](CC1CCCCC1)C(N)=O)[C@@H](C)O) [4-Imidazolecarbonyl-[D-Pro24, Iva25, Pya(4)26, Cha27,36, Aib28,31, Lys30]-PYY(23-36)] , output reported IC50 Ratio (IC50 compound/IC50 PYY(3-36)).
Completion: 0.77

The values you see were collected from patent US20120172293A1.
